Values compiled from PubChem BioAssay AID620.

- Assay Name: HT1080 cell viability loss – fluorescence readout (AID 620);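 also: cells exposed to compound overnight then 4 h with Alamar Blue; 0% = vehicle DMSO and 100% = killing control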
- Test Settings: at 10 µM, active compounds read high
The campaign covered roughly 87,000 compounds. About 360 (0.41%) were called active. Shown is part of a subset that was picked to be rich in actives.
Reported Metric: cytotoxicity (%)
One number for each entry, in %.

Worked set:
COc1cc(OC)c(NC(=O)CCc2ccccc2)cc1Cl; -15.4
O=C(N1CCOCC1)n1nnc2ccccc21; -1.4
Nc1cccc(-c2nc3ccccc3[nH]2)c1; -3.9

Each of the following entries comes with a recorded value; kindly state cytotoxicity for each.
1. CCN(CC)Cc1c(-c2ccccc2)[nH]c2ccc(C)cc2c1=O
2. Cc1ccc2[nH]c(C(=O)O)c(-c3ccccc3)c2c1
3. CC(C)C1N(c2ccccc2)C(N)=C(C#N)C1(C#N)C#N (stereo not drawn)

Return:
1: 5.1; 2: -8.4; 3: -5.5
